# system under test: GPR139 (Homo sapiens, UniProt Q6DWJ6)
# experimental details: GPR139 Agonist titration / agonist counterscreen assay (calcium detection, HEK-GPR139 cells)
# Assay type: cell-based
# Parameters: expressed in transfected cells; host or cells: HEK Aequorin cells, Maxcyte transient transfection
# study conditions: GPR139 Agonist Activity; based on logD
readout type: Lipophilic Efficiency (logD)

Example results:
>>> df
                                   compound                      system_under_test  reported_value
0  O=C(CN1CCCc2ccccc21)NNC(=O)Nc1ccc(Cl)c(Cl)c1  GPR139 (Homo sapiens, UniProt Q6DWJ6)            3.35
1  C=C(Nc1ccc(-c2cn[nH]c2)cc1)N(C)Cc1cccc(C(=O)CC)c1  GPR139 (Homo sapiens, UniProt Q6DWJ6)            3.98
2           CC1=CN=C(CCc2ccc(F)c3ccccc23)C1  GPR139 (Homo sapiens, UniProt Q6DWJ6)            4.05
3  Cc1ccc(CCNC(=O)Cn2nc(-c3ccccc3)ccc2=O)cc1  GPR139 (Homo sapiens, UniProt Q6DWJ6)            3.85

P. CC(NC(=O)Cn1ncc2ccccc21)c1ccc2c(c1)OCCO2 (centres unmarked)
Q. Cc1cccc(NC(=O)NCCc2ccc3c(c2)CCCN3C)c1
Query block: Could you point out whether the larger Lipophilic Efficiency (logD) belongs to P or to Q ? Answer format: the label of the selected item.
Result block: P
(P: 4.79, Q: 3.21)

----------
# System: parental HEK cells
# experimental details: HEK parental Agonist Counterscreen Assay (non-transfected cells)
# Format: cell-based
# study conditions: HEK Agonist Activity section
readout type: Lipophilic Efficiency (logP)

Example results:
In [3]: df
Out[3]:
                                   molecule                  readout_type  reported_value
0      Cc1ccc(SCC(=O)Nc2nnc(-c3ccco3)o2)cc1  Lipophilic Efficiency (logP)            2.38
1  CC(NC(=O)c1ccc2c(c1)N(Cc1ccccc1)C(=O)C[S+]2[O-])c1ccccc1 (centres unmarked)  Lipophilic Efficiency (logP)            1.95
2  COC(=O)c1ccc(NC(=O)CNC(=O)C2CCCCC2)c(C)c1  Lipophilic Efficiency (logP)            2.12

a. Cc1cc(C)c2c(CC(=O)NNC(=O)COc3ccccc3)coc2c1
b. CC1CCCCN1C(=O)CN1C(=O)C2(CCc3ccccc3C2)NC1=S (centres unmarked)
Query block: Could you point out whether the larger Lipophilic Efficiency (logP) belongs to a or to b ? Answer format: the label of the selected item.
Result block: b
(b: 2.90, a: 1.93)

----------
# Test system: parental HEK cells
# experimental details: HEK parental Agonist Counterscreen Assay (non-transfected cells)
# Type: cell-based
# study conditions: HEK Agonist Activity section
readout type: Lipophilic Efficiency (logP)

Example results:
In [3]: df
Out[3]:
                                   compound   system_under_test  reported_value
0       N#Cc1ccc(OC(=O)COc2cccc3ccccc23)cc1  parental HEK cells            0.91
1      Cc1ccc(CNC(=O)COC(=O)c2ccc(Br)o2)cc1  parental HEK cells            2.20
2  CC1CCCC(NC(=O)CN2CCN(Cc3ccc(F)cc3Cl)C2=O)C1C (centres unmarked)  parental HEK cells            1.67
3  CC(CCC(=O)C12CC3CC(CC(C3)C1)C2)CCc1ccc2ccccc2c1 (centres unmarked)  parental HEK cells            1.36
4             COC(=O)c1ccc(CSc2nnc(N)s2)cc1  parental HEK cells            2.26
5  C=C(CC1C=CC2=C1c1ccccc1CC2)Nc1ccc(CC)cc1 (centres unmarked)  parental HEK cells            2.53
6  CC(C)C(C)(C#N)NC(=O)CSc1nnc(Cc2cccc3ccccc23)n1N (centres unmarked)  parental HEK cells            2.62
7   COc1ccc(CCC(=O)Nc2ccc(/C(N)=N/O)cc2)cc1  parental HEK cells            2.60
8     Cc1cc(NC(=O)Cn2ncc3c2-c2ccccc2OC3)no1  parental HEK cells            3.22
9  CN(C)C(CNC(=O)Nc1ccc(Cl)c(Cl)c1)c1cccnc1 (centres unmarked)  parental HEK cells            1.96

A. O=C(CCS(=O)(=O)c1cccc2nonc12)NCCc1ccc(Cl)cc1
B. CSc1cccc(NC(=O)C2C3C=CC4(O3)C2C(=O)N(C(C)c2ccccc2)C4C(=O)NC2CCCC(C)C2C)c1 (centres unmarked)
C. COc1ccc(CC(=O)NNC(=O)C(C)Oc2ccc(Cl)cc2Cl)cc1OC (centres unmarked)
D. O=C(CN1C(=O)OC(O)(c2ccc(Cl)cc2Cl)C1=O)Nc1ccccc1Cl (centres unmarked)
Query block: Ascending by Lipophilic Efficiency (logP), please: list the compounds accordingly. API: response body holds the labels in the requested order.
Result block: B, D, C, A
(B: −0.052, D: 0.97, C: 1.66, A: 2.79)

----------
# system under test: GPR139 (Homo sapiens, UniProt Q6DWJ6)
# Sequence (Q6DWJ6 1-353): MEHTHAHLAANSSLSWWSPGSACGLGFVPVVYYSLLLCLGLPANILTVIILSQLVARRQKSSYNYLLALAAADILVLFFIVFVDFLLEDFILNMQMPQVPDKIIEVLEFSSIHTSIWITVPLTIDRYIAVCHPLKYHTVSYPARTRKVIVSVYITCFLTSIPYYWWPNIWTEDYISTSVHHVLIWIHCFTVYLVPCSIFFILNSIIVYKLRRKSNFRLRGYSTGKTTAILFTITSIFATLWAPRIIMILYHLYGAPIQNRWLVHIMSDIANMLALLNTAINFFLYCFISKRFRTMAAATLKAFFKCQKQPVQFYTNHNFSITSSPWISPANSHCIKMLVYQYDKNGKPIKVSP
# experimental details: GPR139 Agonist titration / agonist counterscreen assay (calcium detection, HEK-GPR139 cells)
# Format: cell-based
# Design: expressed in transfected cells; host or cells: HEK Aequorin cells, Maxcyte transient transfection
# study conditions: GPR139 Agonist Activity
readout type: Lipophilic Efficiency (logD)

molecule	Lipophilic Efficiency (logD)
O=C(O)CC1CCCC1c1ccccc1 (stereo not shown) [SR-01000320687]	5.53
Cc1cccc(CNC(=O)Nc2ccc(-c3cn[nH]c3)cc2)c1.O=C(O)C(F)(F)F [SR-00000005301]	3.26
Cc1cc(NC(=O)Cn2ncc3c2-c2ccccc2OC3)no1 [SR-01000098884]	4.12
COc1ccc2c(CC(=O)NNC(=O)c3cc(-c4ccccc4)no3)coc2c1 [SR-01000074979]	4.03
COc1ccc2cc(CCNC(=O)/C=C\c3ccc4c(c3)OCO4)c(=O)[nH]c2c1 [SR-01000124392]	3.17
Cc1[nH]ncc1-c1ccc(NC(=O)C2COc3ccc(F)cc3C2)c(OCCN2CCOCC2)c1.O=C(O)C(F)(F)F.O=C(O)C(F)(F)F (stereo not shown) [SR-00000005393]	3.27
O=C(CN1CC(=O)N(Cc2ccc(O)cc2)C(c2ccccc2Cl)C1=O)NCc1ccco1 (stereo not shown) [SR-01000583711]	3.24
O=C(CCS(=O)(=O)c1cccc2nonc12)NCCc1ccc(Cl)cc1 [SR-01000119565]	3.46
COc1ccc(CC(=O)NNC(=O)C(C)Oc2ccc(Cl)cc2Cl)cc1OC (stereo not shown) [SR-01000312779]	2.77
CCN1CCCc2cc(CCNC(=O)Nc3ccccc3)ccc21 [SR-01000923250]	1.87

a. O=C(NCCc1ccc(Cl)cc1)c1nnc(Cc2ccc(F)cc2)o1 [SR-01000125346]
b. COc1ccc2c(c1)C[C@H](C(=O)Nc1ccc(-c3cn[nH]c3)cc1OCC1CNC1)NC2.O=C(O)C(F)(F)F.O=C(O)C(F)(F)F.O=C(O)C(F)(F)F [SR-00000006698]
Query block: Could you point out whether the larger Lipophilic Efficiency (logD) belongs to a or to b ? Answer format: the label of the selected item.
Result block: b
(b: 7.81, a: 2.95)

----------
# system under test: GPR139 (Homo sapiens, UniProt Q6DWJ6)
# experimental details: GPR139 Agonist titration / agonist counterscreen assay (calcium detection, HEK-GPR139 cells)
# Assay type: cell-based
# Parameters: expressed in transfected cells; host or cells: HEK Aequorin cells, Maxcyte transient transfection
# study conditions: GPR139 Agonist Activity; HEK-GPR139 cells; read-out: EC50
readout type: EC50 (µM)

>>> print(df.to_string())
                                   compound  unit_abbrev  reported_value
0  O=C(Cn1nc(Cc2ccncc2)c2ccccc2c1=O)N1CCCc2ccccc21           µM           0.537

A. Cc1ccc2c(c1)-c1c(cnn1CC(=O)Nc1ccc(F)cc1)CO2
B. CC(C)CCNC(=O)CN1CCN(Cc2ccc(F)cc2Cl)C1=O
Query block: Could you point out whether the larger EC50 belongs to A or to B ? Answer format: the label of the selected item.
Result block: A
(A: 2.5 µM, B: 0.309 µM)
